# Test system: Plasmodium falciparum NF54 stage V gametocytes
# ASSAY NAME: viability index relative to DMSO control (fraction); higher = less gametocyte killing
# EXPERIMENTAL SETUP: 2.5 µM, library set: Broad Institute DOS, incubation time: 72 h
Whole data set: some 9,900 compounds, median “viability index relative to DMSO control” near 1, cut for the lowest 2% near 0.85. This excerpt belongs to a sample that is enriched for the lowest values.
The compounds listed here are annotated with their viability index.
Could you keep your reply to the number by itself?

Known viability index results, listed for orientation:
1) COc1ccc2c3c([C@H](CO)N(C[C@]33CCN(CC3)C(=O)Nc3cccc(F)c3)C(=O)CN3CCOCC3)n(C)c2c1 : 0.941
2) CC(=O)N1[C@H](CO)[C@@H](c2ccccc2)C12CN(S(=O)(=O)c1ccccc1)C2 : 1.11
3) N#C[C@H]1[C@@H](c2ccccc2C2=CCCC2)[C@H](CO)N1C(=O)Cc1ccncc1 : 1.07

Query :: Which viability index is reported for this compound? CCCNC(=O)N1C[C@]2(CCN(CC2)C(=O)Nc2cccc(F)c2)c2c([C@H]1CO)n(C)c1cc(OC)ccc21
Result :: 0.991

Query :: Which viability index is reported for this compound? Cc1cc(C(=O)Nc2ccc3c(c2)C(=O)N(C)[C@H]2CC[C@H](CC(=O)O)O[C@@H]2CO3)no1
Result :: 0.927

Query :: Which viability index is reported for this compound? Cc1noc(C)c1NC(=O)Nc1ccc2c(c1)C(=O)N([C@@H](C)CO)C[C@@H](C)[C@@H](CN(C)Cc1ccc3c(c1)OCO3)OCCCC[C@@H](C)O2
Result :: 1.15

Query :: Which viability index is reported for this compound? COc1ccc2c3c([C@@H](CO)N(C[C@]33CCN(CC4CCOCC4)CC3)C(=O)NC(C)C)n(C)c2c1
Result :: 0.97

Query :: Which viability index is reported for this compound? CNC[C@H]1Oc2c(NS(=O)(=O)c3ccc(Cl)cc3)cccc2C(=O)N([C@@H](C)CO)C[C@H]1C
Result :: 1.01
